assay: aggregation and purification amounts of deglycosylated antibodies, before and after φ; format: physicochemical; conditions: based on 100 ml culture
endpoint-name: Fraction1, Before φ (mg)
Answers are plain numbers, in mg.

Form field Fraction1, Before φ, entry Deglyco-C4: deglycosylated clone 1 IgG; light chain CDR1 TGSSSNIGAVVVT (SEQ ID NO: 5) (antibody, V domains shown) VH: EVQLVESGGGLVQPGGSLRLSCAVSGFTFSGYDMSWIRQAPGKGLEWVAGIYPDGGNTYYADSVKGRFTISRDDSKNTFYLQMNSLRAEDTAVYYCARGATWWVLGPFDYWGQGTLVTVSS VL: DIQLTQSPSSLSASVGDRVTITCTGSSSNIGAVVVTWYQQKPGKAPKLLIYADSHRPSGVPSRFSGSGSGTDFTLTISSLQPEDFATYYCGAWDDSLSGYVFGQGTKVEIKR : 0.019
